# System: NCI-H23 lung
# ASSAY REMARKS: NCI tumour cell line growth inhibition, 384-well format
MEASURED ATTRIBUTE: TGI (µM)
Report the value in µM with no unit label.

Recorded results for 2 molecules are shown here.
molecule=NC(=O)c1cccc2cn(-c3ccc([C@@H]4CCCNC4)cc3)nc12 measured_attribute=TGI display_unit=µM val=19.6
molecule=CC(C)N=C(N)/N=C(\N)Nc1ccc2ccc3ccccc3c2c1 measured_attribute=TGI display_unit=µM val=2.86

With those in mind, consider the next molecule.
# value of TGI, NCI-H23 lung, item CCCCC(=O)OCC(=O)[C@]1(O)Cc2c(O)c3c(c(O)c2[C@@H](OC2CC(NC(=O)C(F)(F)F)C(O)C(C)O2)C1)C(=O)c1c(OC)cccc1C3=O (some centres undefined) = 1.15

* * *

Listing: TGI of selected compounds
# System: SK-OV-3 ovarian
# ASSAY REMARKS: NCI tumour cell line growth inhibition, 384-well format
Report the value in µM with no unit label.

Recorded results for 3 compounds are shown here.
compound="COC1CCC(N2C(=O)CNc3ncc(-c4ccc(C(C)(C)O)nc4)nc32)CC1 (centres undefined)" target_of_assay="SK-OV-3 ovarian" val=17.1
compound=NC(=O)c1cccc2cn(-c3ccc([C@@H]4CCCNC4)cc3)nc12 target_of_assay="SK-OV-3 ovarian" val=28.8
compound=CC(C)N=C(N)/N=C(\N)Nc1ccc2ccc3ccccc3c2c1 target_of_assay="SK-OV-3 ovarian" val=2.73

// TGI value for CCCCC(=O)OCC(=O)[C@]1(O)Cc2c(O)c3c(c(O)c2[C@@H](OC2CC(NC(=O)C(F)(F)F)C(O)C(C)O2)C1)C(=O)c1c(OC)cccc1C3=O (some centres undefined) : 5.44
